target: Chromo domain-containing protein 1 (Saccharomyces cerevisiae (strain ATCC 204508 / S288c) (Baker's yeast)); assay: ScCHD-1 Enzyme Inhibition Assay; format: functional; parameters: scale not given: in the data most compounds retested in dose-response had high values; details: 30 µM
Reported Property: Percent Effect (%)
State the answer as a number, implicitly in %.

Prompt: Looking for the measured Percent Effect of Cc1cnc(N)c(C(=O)C2CCN(C(=O)c3ccccc3F)CC2)c1 , can you help?
Response: -6.49

Prompt: Percent Effect lookup needed for Cn1ncc2c(=O)[nH]c(N3CCN(C(=O)c4ccsc4)CC3)nc21 , thanks.
Response: 1.01

Prompt: Give its Percent Effect value. Item: Cc1cnn(CC2CCCCN2C(=O)Cc2csc(C)n2)c1 (stereo unspecified)
Response: -19.5

Prompt: Which Percent Effect is reported for this compound? O=C(NCc1cccs1)[C@H]1CC[C@@H]2[C@@H](CCN2c2ncccn2)O1
Response: -3.92

Prompt: Query: Percent Effect; subject: CC(C)(C)c1cc(CN2CC[C@@H](NC(=O)c3cccnc3)[C@H](O)C2)n[nH]1
Response: -6.81

Prompt: Field request: Percent Effect | item: Cc1oc(-c2nc(C#N)c(N(C)C)o2)cc1S(=O)(=O)N1CCCC1
Response: -0.712

Prompt: Which Percent Effect is reported for this compound? CN1N=C(C(=O)NCc2ccc3c(c2)CCCN3C)CCC1=O
Response: -23

Prompt: Which Percent Effect value is on record for CC(C)Oc1ncccc1CNC(=O)c1cc[nH]n1 ?
Response: -2.93

Prompt: // lookup Percent Effect for Cc1cccc(-c2nc(CN3CCCCC3Cn3cncn3)no2)c1 (stereo unspecified)
Response: 6.07

Prompt: Quick one: Percent Effect for Cc1ccccc1Cc1cnc(NC(=O)C2CNC(=O)N2)s1 (stereo unspecified) ?
Response: -23.7

Prompt: What does the data say about its Percent Effect? Entry: CCc1cc(NCc2ccccc2CN2CCCC2)n2ncnc2n1
Response: -5.77

* * *

biological target: Ubiquitin-activating enzyme e1, putative (Leishmania donovani (strain BPK282A1)); assay: Leishmania donovani Ubiquitin Activating Enzyme (LdE1); format: functional; set-up: scale not given: direction of the effect not stated beside the values; settings: 30 µM
Results with a measured potency or affinity are listed apart.
Reported Property: Percent Effect (%)
Only the number, expressed in %, is required.

Prompt: Can you look up the measured Percent Effect of COc1ccc(CNCC2CC2)cc1F for me?
Response: 0

Prompt: Which Percent Effect is listed for Cc1cc(CN2CCN(C(=O)NC(C)c3cccnc3)CC2)on1 (configuration not stated) ?
Response: 13.2

Prompt: Entry O=C(Nc1cccc(Cl)c1)c1nn(C2CCS(=O)(=O)C2)c2c1CCCC2 (configuration not stated) : reported Percent Effect = ?
Response: -7.89

Prompt: Sample CCN(c1ccc(C(=O)N2CCCC2)cc1)S(=O)(=O)CC — what was its Percent Effect?
Response: -1.39

Prompt: Record request: Percent Effect value, item Cc1nc(COc2cccc(C#N)c2)no1
Response: 21.1

Prompt: Dear colleague, I am looking for the recorded Percent Effect of the following molecule: O=C1CC2(CCN(S(=O)(=O)C3CC3)C2)CN1c1cncnc1 (configuration not stated)
Response: 16

Prompt: Any idea what its Percent Effect is? The molecule is CCOC[C@H]1CC[C@H]2[C@H](CCN2C(=O)c2ccncc2F)O1
Response: 2.7

Prompt: Given Cc1nc(CN2CCN(C(=O)c3cc(C4CC4)on3)CC2)cs1 , state its recorded Percent Effect.
Response: 13

Prompt: Field request: Percent Effect | item: O=C(NCc1cccs1)[C@H]1CC[C@@H]2[C@@H](CCN2c2ncccn2)O1
Response: 5.41

Prompt: What measured Percent Effect goes with CC(C)c1ncc2c(n1)CN(Cc1cccc(C#N)c1)CC2 ?
Response: 0

Prompt: For O=C(CCN1CCCC1=O)NCc1cccnc1Oc1ccccc1 , what is its reported Percent Effect?
Response: -8.22

Prompt: Percent Effect for CC(c1cccnc1)N(C)Cc1csc(-c2ccccn2)n1 (configuration not stated) ?
Response: 5.48

* * *

Exercise: state measured Percent Effect for each of the compounds provided.
tested on: Trypanosoma cruzi; assay: Trypanosoma cruzi phosphomannomutase and mannose-1-phosphate guanylyltransferase assay; format: functional; parameters: scale not given: direction of the effect not stated beside the values; conditions: 10 µM
Record the value in %, omitting the unit from your answer.

Prompt: Fill in: Percent Effect of Cc1nc(C)n(CC2CN(CCc3ccncc3)CCO2)n1 (stereo unspecified) is ___
Response: 0.979

Prompt: Percent Effect for COCCN1CCC(NC(=O)C2(c3cc(C)cc(C)c3)CC2)CC1 ?
Response: -1.59

Prompt: So what does the record say about Percent Effect for O=C(CN(Cc1ccccc1)CC1CCOCC1)NC(=O)NC1CC1 ?
Response: -4.96

Prompt: Would you kindly share the measured Percent Effect for CCC1=N[C@@]2(CC[C@@H]3CN(Cc4ccc(Cl)cc4)C[C@@H]32)C(=O)N1C ?
Response: -0.0978

Prompt: Entry Cc1nn(C)c(Cl)c1C1CCCN1CCc1ccccn1 (stereo unspecified) has what Percent Effect?
Response: -1.74

Prompt: Recorded Percent Effect of Cc1nn(C)c(Cl)c1C1CCCN1C(=O)c1ccc2c(c1)OCO2 (stereo unspecified) , please.
Response: -5.38

Prompt: Consider the compound shown here: COCCN1CCCC(c2nc3c([nH]2)CC(C)(C)CNC3=O)C1 (stereo unspecified) What is its recorded Percent Effect?
Response: 2.32

Prompt: Param item = CCNC(c1cccnc1)c1ccc(F)c(F)c1 (stereo unspecified) ; retrieve measured Percent Effect.
Response: -0.923

Prompt: Requested field: Percent Effect. Item: Cn1cc(CN2CC[C@H]3C[C@H](c4nc(C5CC5)cs4)O[C@@H]3C2)cn1
Response: 6.59

Prompt: Any idea what its Percent Effect is? The compound is O=C(c1ccc(C2CCCO2)s1)N1CCS(=O)(=O)CC1 (stereo unspecified)
Response: 9.07

Prompt: Entry under review: Cc1noc(C(C)N2CCN(CC(=O)N3CCOCC3)CC2)n1 (stereo unspecified) . Reported Percent Effect?
Response: 5.55

* * *

species on record: Homo sapiens; experiment: To identify inhibition of the IFN signalling (Jak-Stat) pathway via expression of an eGFP reporter gene under the control of an IFN-stimulated response element (ISRE) containing MxA promoter.; assay type: functional; parameters: scale not given: direction of the effect not stated beside the values; conditions: 30 µM
Reported Property: Percent Effect (%)
Write down the numeric answer in % and omit the unit.

Prompt: If you can, please state the reported Percent Effect value of CC(C)N1CCC(NCc2cccnc2N(C)C)CC1 .
Response: 0.898

Prompt: For the compound CC(C)NC(=O)N1CCC2(COCc3cnc(-c4cccnc4)nc32)C1 (centres undefined) , what Percent Effect is on record?
Response: 6.17

Prompt: Any idea what Percent Effect was measured for CN(CCCNc1cc(N2CCCC2CO)ncn1)S(C)(=O)=O (centres undefined) ?
Response: 8.58

Prompt: // query Percent Effect value for entry CN1CCCc2cc(CNC(=O)c3ccc(NC4CC4)nc3)ccc21
Response: -2.19

Prompt: Requested read-out: Percent Effect. Entry: CCc1nccn1C1CCCN(C(=O)c2cnc3ccccc3n2)C1 (centres undefined)
Response: 24.6

Prompt: Which Percent Effect value is on record for Cc1nn(C)c(C)c1C1COCCN1c1ncnc2sccc12 (centres undefined) ?
Response: 31.3

Prompt: Which value of Percent Effect has been reported for CCN(c1ccc(C(=O)N2CCCC2)cc1)S(=O)(=O)CC in the records?
Response: -27.1

Prompt: Returns the measured Percent Effect for the input compound. Input: COc1ccc(CS(=O)(=O)CC(=O)NCc2ccccc2F)cc1F
Response: -0.495

Prompt: Any idea what Percent Effect was measured for Cc1noc([C@H]2COC[C@H]3CN(C(=O)Cc4ccc(F)cc4)C[C@H]32)n1 ?
Response: -8.46

Prompt: Query: Percent Effect; subject: NS(=O)(=O)c1ccc(NC(=O)CSc2ccc3c(c2)CCC3)cc1
Response: 6.93

Prompt: Tell me the measured Percent Effect of O=C(NCC1CCOC1)c1csc(-c2ccco2)n1 (centres undefined) , please.
Response: 13.5

Prompt: Requested read-out: Percent Effect. Entry: CNc1cc(CNC(=O)c2ccccc2)nc(-c2ccncc2)n1
Response: 1.41

Prompt: Fill in: Percent Effect of CC(C)Cc1noc(CN2CCN(C(=O)c3cccc(F)c3)CC2)n1 is ___
Response: 0.357

Prompt: // query Percent Effect value for entry Cc1ccc(C2CSCCN2C(=O)c2ccsc2)o1 (centres undefined)
Response: -0.446

Prompt: Percent Effect for CC(C)c1nccn1CCCNC(=O)c1ccc(-c2cncnc2)nc1 ?
Response: 17.9

Prompt: // query Percent Effect value for entry O=C1N(c2ccccc2)Cc2nc(=O)[nH]n21
Response: 8.42

Prompt: I am curious: what Percent Effect value has been reported for CC(=O)NCCN1CCC(c2cccs2)CC1 ?
Response: 3.79

Prompt: Requested read-out: Percent Effect. Entry: CC(C)C(NC(=O)NCC1(CO)CC1)c1nnc2n1CCC2 (centres undefined)
Response: 10.4

Prompt: Quick one: Percent Effect of CCc1n[nH]c(C2CN(C(=O)c3cnc[nH]3)CCO2)n1 (centres undefined) ?
Response: 1.28

Prompt: I'd like to know its Percent Effect. The compound in question is CN1CCC(c2nnc(CN3CCC(O)CC3)n2C)CC1
Response: 1

Prompt: Please give the measured Percent Effect for this compound: Cc1c[nH]cc1C(=O)N1CCN(Cc2nc(C(C)C)no2)CC1
Response: 17.2

Prompt: Please look up its Percent Effect: CC(C)c1n[nH]c(C2CN(C(=O)c3cccc4cn[nH]c34)CCO2)n1 (centres undefined)
Response: 4.21

Prompt: Given CN1CCN(C(=O)CC2CCN(CCc3ccccn3)CC2)CC1 , state its recorded Percent Effect.
Response: 9.07

Prompt: If you can, please state the reported Percent Effect value of N#Cc1ccc(CN2CCN(C(=O)C3CCC3)[C@@H]3CS(=O)(=O)C[C@@H]32)cc1 .
Response: 14.4
